# System: COLO 205
# ASSAY PROTOCOL: NCI tumour cell line growth inhibition, 48 h
Structures can show the parent of a compound that is named as a salt. Calls of active or inactive are those of the source. Cut-off read from the data, not from the text of the source: active = GI50 up to about 1.1 µM and inactive = higher.
Labels: active, inactive

COMPOUND: OC1(c2cc3ccccc3s2)CCCCC1
TARGET ENTITY: COLO 205
LABEL: inactive
//
COMPOUND: CN1OC(CO)CC12C1CC3CC(C1)CC2C3 (stereo unspecified)
TARGET ENTITY: COLO 205
LABEL: inactive
//
COMPOUND: CSc1c(C#N)c(=O)[nH]c2[nH]nc(C)c12
TARGET ENTITY: COLO 205
LABEL: inactive
//
COMPOUND: O=C1CCCc2cc3c(cc21)CC1(C3)Cc2cc3c(cc2C1)C(=O)CCC3
TARGET ENTITY: COLO 205
LABEL: inactive
//
COMPOUND: N#Cc1c(-c2ccccc2)cc(-c2ccc(N)cc2)[nH]c1=O
TARGET ENTITY: COLO 205
LABEL: inactive
//
COMPOUND: CC(=O)NCC1OC2COC(c3ccccc3)OC2C2N=C(c3ccccc3)OC12 (stereo unspecified)
TARGET ENTITY: COLO 205
LABEL: inactive
//
COMPOUND: CCOC(=O)NC(N(C)C(C(C)C)P(=O)(OCC)OCC)(C(F)(F)F)C(F)(F)F (stereo unspecified)
TARGET ENTITY: COLO 205
LABEL: inactive
//
COMPOUND: Cc1ccc(-c2c(C#N)c(-c3ccccc3)c(C#N)c(=O)n2NS(=O)(=O)c2ccc(C)cc2)cc1
TARGET ENTITY: COLO 205
LABEL: inactive
//
COMPOUND: COC1/C=C\OC2(C)Oc3c(C)c(O)c4c(O)c(c(/C=N\OCCCc5ccccc5)c(O)c4c3C2=O)NC(=O)/C(C)=C\C=C/C(C)C(O)C(C)C(O)C(C)C(OC(C)=O)C1C (stereo unspecified)
TARGET ENTITY: COLO 205
LABEL: inactive
//
COMPOUND: CCCCCCCCCCCCCCCCCCNc1ccn(C2OC(COP(=O)(O)OCC3CCC(n4cnc5c(=O)[nH]cnc54)O3)C(O)C2O)c(=O)n1 (stereo unspecified)
TARGET ENTITY: COLO 205
LABEL: inactive
//
COMPOUND: c1ccc(C(=NNc2nc3ccccc3[nH]2)c2ccccn2)nc1
TARGET ENTITY: COLO 205
LABEL: active
//
COMPOUND: NCCc1cc(O)c(O)cc1O [OXIDOPAMINE HYDROCHLORIDE]
TARGET ENTITY: COLO 205
LABEL: inactive
//
COMPOUND: N/N=C1\C(=O)N(Cc2ccccc2)C(=O)C1C(=O)NCc1ccccc1 (stereo unspecified)
TARGET ENTITY: COLO 205
LABEL: inactive
//
COMPOUND: OCC1OC(O[C@H]2CN3[C@H](O)[C@@H](O)[C@H](O)[C@H]3C2O)C(O)C(O)C1O (stereo partly specified)
TARGET ENTITY: COLO 205
LABEL: inactive
//
COMPOUND: Cc1ccc(Cl)c2c(=O)c3ccc(N)cc3sc12
TARGET ENTITY: COLO 205
LABEL: inactive
//
COMPOUND: c1cc(-c2ccc(-c3ccc(-c4ccc(-c5ccncc5)o4)cc3)o2)ccn1
TARGET ENTITY: COLO 205
LABEL: inactive
